Test system: Chinese hamster lung (CHL/IU) cells
ASSAY OVERVIEW: Effect of inducing chromosomal aberration
Format: cell-based
RUN PARAMETERS: 100 μg/mL, 24 hours, CHL/IU cells
ENDPOINT LABEL: Percentile induction of structural aberration (TA %)
Form entry: value (%) — number only.

Return reported Percentile induction of structural aberration (TA %); argument: CC[C@H]1CN(c2c(F)cc3c(=O)c(C(=O)O)cn4c3c2OC[C@@H]4C)C[C@H]1N
9

Request the reported Percentile induction of structural aberration (TA %) associated with CC[C@H]1CN(c2c(F)cc3c(=O)c(C(=O)O)cn([C@@H]4C[C@@H]4F)c3c2C)C[C@H]1N
8

Look up Percentile induction of structural aberration (TA %): CC[C@H]1CN(c2c(F)cc3c(=O)c(C(=O)O)cn([C@@H]4C[C@@H]4F)c3c2OC)C[C@H]1N
7
